test system: rotarod test (neurotoxicity); assay: Rotarod neurotoxicity test (TOX), rats, oral; type: in vivo; conditions: 200 mg/kg, 0.5 h
PROPERTY_LABEL: TOX: N/F = number of animals that failed the rotarod test to numbers tested

| COMPOUND | RESULT |
| --- | --- |
| C/C=C\C(=C/C(C)C)C(=O)[O-].[Na+] [341031U] | 0/4 |
| CC/C=C(\C=C(C)C)C(=O)[O-].[Na+] [341032U] | 4/4 |
| C/C=C\C(=C/C)C(=O)[O-].[Na+] [325071A, Sodium (2E,3Z)-2-ethylidenpent-3-enoate] | 0/8 |
| CCCC(CC(C)(F)F)C(=O)[O-].[Na+] (stereo not shown) [332060U, Sodium 4,4-difluoro-2-propylpentanoate] | 0/4 |

----------
system: PTZ-induced clonic seizures; test: PTZ85 assay, latency of clonic seizures; assay type: in vivo; conditions: 1800 micromoles, male cd1/cr mice
PROPERTY_LABEL: Latency of Clonic Seizures (s)

| SMILES_INPUT | TARGET_SYSTEM | READOUT_UNIT | QUANTITATIVE_RESULT |
| --- | --- | --- | --- |
| O=C([O-])/C=C/C=C1CCCCC1.[Na+] | PTZ-induced clonic seizures | s | 661 |
| O=C([O-])/C=C/C=C1CCCCCCC1.[Na+] | PTZ-induced clonic seizures | s | 855 |
| O=C([O-])/C=C/C=C1CCCCCC1.[Na+] | PTZ-induced clonic seizures | s | 778 |
| O=C([O-])/C=C/C=C1CCCC1.[Na+] | PTZ-induced clonic seizures | s | 589 |

----------
tested on: rotarod test (neurotoxicity); experiment: Rotarod neurotoxicity test (TOX), rats, oral; type: in vivo; conditions: 200 mg/kg, 0.25 h
PROPERTY_LABEL: TOX: N/F = number of animals that failed the rotarod test to numbers tested

| COMPOUND | RESULT |
| --- | --- |
| C/C=C\C(=C/C(C)C)C(=O)[O-].[Na+] [341031U] | 0/4 |
| CC/C=C(\C=C(C)C)C(=O)[O-].[Na+] [341032U] | 3/4 |
| CCCC(CC(C)(F)F)C(=O)[O-].[Na+] (stereo not shown) [332060U, Sodium 4,4-difluoro-2-propylpentanoate] | 0/4 |
| C/C=C\C(=C/C)C(=O)[O-].[Na+] [325071A, Sodium (2E,3Z)-2-ethylidenpent-3-enoate] | 0/8 |

----------
# melting point per entry

| MOLECULE | melting point |
| --- | --- |
| O=C(O)/C=C/C=C1CCCCC1 [Compound 41b, (2E)-4-Cyclohexylidenebut-2-enoic Acid] | 132 to 134 °C |
| O=C(O)/C=C\C=C1CCCC1 [Compound 42a, (2Z)-4-Cyclopentylidenebut-2-enoic Acid] | 105 to 107 °C |
| O=C(O)/C=C/C=C1CCCCCCC1 [Compound 41d, (2E)-4-Cyclooctylidenebut-2-enoic Acid] | 114 to 116 °C |
| O=C(O)/C=C\C=C1CCCCCCC1 [Compound 42d, (2Z)-4-Cyclooctylidenebut-2-enoic Acid] | 110 to 112 °C |
| O=C(O)/C=C\C=C1CCCCCC1 [Compound 42c, (2Z)-4-Cycloheptylidenebut-2-enoic Acid] | 86 to 88 °C |
| O=C(O)/C=C\C=C1CCCCC1 [Compound 42b, (2Z)-4-Cyclohexylidenebut-2-enoic Acid] | 121 to 123 °C |
| O=C(O)/C=C/C=C1CCCC1 [Compound 41a, (2E)-4-Cyclopentylidenebut-2-enoic Acid] | 112 to 114 °C |
| O=C(O)/C=C/C=C1CCCCCC1 [Compound 41c, (2E)-4-Cycloheptylidenebut-2-enoic Acid] | 88 to 89 °C |
